assay: Example 2 plasma pharmacokinetics, normal renal function vs severe renal impairment; details: both, human, plasma, inhaled or intranasal, 160 mg, Tmax (Geometric mean), normal renal function; single intranasal 160 mg cocaine HCl
Assay readout: Tmax
Respond with a number, then the unit of measure.

Reported Tmax ( COC(=O)[C@H]1[C@@H](OC(=O)c2ccccc2)C[C@@H]2CC[C@H]1N2C [Cocaine, cocaine, reference compound] ) = 31.1 min

---

experiment: Example 2 plasma pharmacokinetics, normal renal function vs severe renal impairment; conditions: both, human, plasma, inhaled or intranasal, 160 mg, Cmax, range observed, renally impaired patients; soaked absorbent articles on nasal mucous membranes
Assay readout: Cmax

Reported Cmax ( COC(=O)[C@H]1[C@@H](OC(=O)c2ccccc2)C[C@@H]2CC[C@H]1N2C [Cocaine, cocaine, reference compound] ) = 21.9 to 93.7 ng/mL
